- test_name: refractive index (Na D-line) (dimensionless)
- experimental_setup: 318.15 K; 101.33 kPa; Liquid; Standard Abbe refractometry
endpoint_label: refractive index
Number only, please.

Which refractive index value belongs to CC(=O)[O-].[NH3+]CCO [2-hydroxyethylammonium acetate] ? 1.43356

Which refractive index value belongs to CC(O)C(=O)[O-].[NH3+]CCO (stereo not given) [2-hydroxyethylammonium lactate] ? 1.43354

Which refractive index value belongs to CC(=O)[O-].C[NH+](CCO)CCO [N-methyldiethanolammonium acetate] ? 1.42813

Which refractive index value belongs to CC(O)C(=O)O.OCCNCCO [diethanolamine lactate] ? 1.43891

Which refractive index value belongs to CC(=O)[O-].OCC[NH2+]CCO [2,2'-azanediylbis(ethanol) acetate] ? 1.42916

###

- experimental_setup: 308.2 K; 101.33 kPa; Liquid; Cone and plate viscometry
Would you kindly list viscosity for each of these molecules?
Quick reminder: number only, in mPa·s, skip the unit.

Which viscosity value belongs to CC(O)C(=O)O.OCCNCCO [diethanolamine lactate] ? 148.54

Which viscosity value belongs to CC(=O)[O-].C[NH+](CCO)CCO [N-methyldiethanolammonium acetate] ? 108.33

Which viscosity value belongs to CC(=O)[O-].[NH3+]CCO [2-hydroxyethylammonium acetate] ? 162.91

Which viscosity value belongs to CC(=O)[O-].OCC[NH2+]CCO [2,2'-azanediylbis(ethanol) acetate] ? 260.02

Which viscosity value belongs to CC(O)C(=O)[O-].[NH3+]CCO (stereo not given) [2-hydroxyethylammonium lactate] ? 133.32

###

- experimental_setup: 363.15 K; 101.33 kPa; Liquid; Vibrating tube method
Would you kindly list mass density for each of these molecules?
Quick reminder: number only, in kg/m3, skip the unit.

Which mass density value belongs to CC(O)C(=O)[O-].[NH3+]CCO (stereo not given) [2-hydroxyethylammonium lactate] ? 1160.86

Which mass density value belongs to CC(O)C(=O)O.OCCNCCO [diethanolamine lactate] ? 1160.03

Which mass density value belongs to CC(=O)[O-].[NH3+]CCO [2-hydroxyethylammonium acetate] ? 1109.55

Which mass density value belongs to CC(=O)[O-].OCC[NH2+]CCO [2,2'-azanediylbis(ethanol) acetate] ? 1127.97

Which mass density value belongs to CC(=O)[O-].C[NH+](CCO)CCO [N-methyldiethanolammonium acetate] ? 1088.36

###

- test_name: refractive index (Na D-line) (dimensionless)
- experimental_setup: 293.15 K; 101.33 kPa; Liquid; Standard Abbe refractometry
endpoint_label: refractive index
Number only, please.

Which refractive index value belongs to CC(=O)[O-].[NH3+]CCO [2-hydroxyethylammonium acetate] ? 1.43775

Which refractive index value belongs to CC(=O)[O-].OCC[NH2+]CCO [2,2'-azanediylbis(ethanol) acetate] ? 1.43431

Which refractive index value belongs to CC(=O)[O-].C[NH+](CCO)CCO [N-methyldiethanolammonium acetate] ? 1.43302

Which refractive index value belongs to CC(O)C(=O)O.OCCNCCO [diethanolamine lactate] ? 1.44156

Which refractive index value belongs to CC(O)C(=O)[O-].[NH3+]CCO (stereo not given) [2-hydroxyethylammonium lactate] ? 1.43858

###

- test_name: refractive index (Na D-line) (dimensionless)
- experimental_setup: 323.15 K; 101.33 kPa; Liquid; Standard Abbe refractometry
Would you kindly list refractive index for each of these molecules?
Number only, please.

Which refractive index value belongs to CC(=O)[O-].[NH3+]CCO [2-hydroxyethylammonium acetate] ? 1.43287

Which refractive index value belongs to CC(=O)[O-].OCC[NH2+]CCO [2,2'-azanediylbis(ethanol) acetate] ? 1.42798

Which refractive index value belongs to CC(=O)[O-].C[NH+](CCO)CCO [N-methyldiethanolammonium acetate] ? 1.42702

Which refractive index value belongs to CC(O)C(=O)[O-].[NH3+]CCO (stereo not given) [2-hydroxyethylammonium lactate] ? 1.43252

Which refractive index value belongs to CC(O)C(=O)O.OCCNCCO [diethanolamine lactate] ? 1.43776
